# Protocol Text: Average particle diameter of the lipid nanoparticles in each preparation (Zetasizer Nano ZS)
# Format: physicochemical
# Run Conditions: preparations of Examples 10 and 11: cationic lipid/PEG-DMPE Na/DSPC/cholesterol with f7 siRNA
Give Particle diameter of Preparation obtained for every item shown.
Answers are plain numbers, in nm.

Field: example entries. Status: answers known.
For the molecule CCCCC/C=C\C/C=C\CCCCCCCCN(CCCCCCCC/C=C\C/C=C\CCCCC)C(=O)OCCC1CCCN1C (stereo not shown) , what Particle diameter of Preparation obtained is on record?
121.1

Do the same for CCCCC/C=C\C/C=C\CCCCCCCCN(CCCCCCCC/C=C\C/C=C\CCCCC)C(=O)OCCCN(C)C please
118.9

Input CCCCC/C=C\C/C=C\CCCCCCCCN(CCCCCCCC/C=C\C/C=C\CCCCC)C(=O)OCCCN1CCCCC1
131.8

For the next question, use this molecule.
Which measured Particle diameter of Preparation obtained value corresponds to CCCCC/C=C\C/C=C\CCCCCCCCN(CCCCCCCC/C=C\C/C=C\CCCCC)C(=O)OCCCN1CCCC1 ?
121.6
